Item-by-item account of IC50
assay_target: BCL6 (Homo sapiens (Human), UniProt P41182)
protocol_text: Immunofluorescence high content imaging of BCL6 degradation in T47D cells
Type: cell-based

{"columns": ["molecule", "assay_target", "IC50"],
 "data": [
  ["CNC(=O)COc1cc2cc(Nc3nc(N4CCN(CC(C)(C)N5CCN(c6ccc7c(c6)C(=O)N(C6CCC(=O)NC6=O)C7=O)CC5)CC4)ncc3Cl)ccc2n(C)c1=O (centres unmarked)", "BCL6 (Homo sapiens (Human), UniProt P41182)", "10 to 50 nM"],
  ["CC(=O)COc1cc2cc(Nc3nc(N4CCN(C(C)(C)C5CCN(c6ccc7c(c6)C(=O)N(C6CCC(=O)NC6=O)C7=O)CC5)CC4)ncc3Cl)ccc2n(C)c1=O (centres unmarked)", "BCL6 (Homo sapiens (Human), UniProt P41182)", "10 to 50 nM"],
  ["CNC(=O)COc1cc2cc(Nc3nc(N4CCC(CN5CCN(c6cccc7c6C(=O)N(C6CCC(=O)NC6=O)C7=O)CC5)CC4)ncc3Cl)ccc2n(C)c1=O (centres unmarked)", "BCL6 (Homo sapiens (Human), UniProt P41182)", "10 to 50 nM"],
  ["CONC(=O)COc1cc2cc(Nc3cc(N4CCN(C(C)(C)C5CCN(c6ccc7c(c6)C(=O)N(C6CCC(=O)NC6=O)C7=O)CC5)CC4)ncc3Cl)ccc2n(C)c1=O (centres unmarked)", "BCL6 (Homo sapiens (Human), UniProt P41182)", "10 to 50 nM"],
  ["CCn1c(=O)c(OCC(=O)NC)cc2cc(Nc3nc(N4CCC(OC5CC6(C5)CN(c5ccc7c(c5)C(=O)N(C5CCC(=O)NC5=O)C7=O)C6)CC4)ncc3Cl)ccc21 (centres unmarked)", "BCL6 (Homo sapiens (Human), UniProt P41182)", "< 10 nM"],
  ["CONC(=O)COc1cc2cc(Nc3nc(N4CCC(CN5CCN(c6ccc7c(c6)C(=O)N(C6CCC(=O)NC6=O)C7=O)CC5)CC4)ncc3Cl)ccc2n(C)c1=O (centres unmarked)", "BCL6 (Homo sapiens (Human), UniProt P41182)", "10 to 50 nM"],
  ["CC(=O)COc1cc2cc(Nc3nc(C#CC4CCCN(c5ccc6c(c5)C(=O)N(C5CCC(=O)NC5=O)C6=O)C4)ncc3Cl)ccc2n(C)c1=O (centres unmarked)", "BCL6 (Homo sapiens (Human), UniProt P41182)", "≥ 100 nM"],
  ["CNC(=O)COc1cc2cc(Nc3nc(N4CCOC(COc5cccc6c5C(=O)N(C5CCC(=O)NC5=O)C6=O)C4)ncc3Cl)ccc2n(C)c1=O (centres unmarked)", "BCL6 (Homo sapiens (Human), UniProt P41182)", "50 to 100 nM"],
  ["Cn1c(=O)c(-c2cnoc2)cc2cc(Nc3nc(N4CCC(CN5CCN(c6ccc7c(c6)C(=O)N(C6CCC(=O)NC6=O)C7=O)CC5)CC4)ncc3Cl)ccc21 (centres unmarked)", "BCL6 (Homo sapiens (Human), UniProt P41182)", "≥ 100 nM"],
  ["Cn1c(=O)c(Cn2cccn2)cc2cc(Nc3nc(N4CCC(CN5CCN(c6ccc7c(c6)C(=O)N(C6CCC(=O)NC6=O)C7=O)CC5)CC4)ncc3Cl)ccc21 (centres unmarked)", "BCL6 (Homo sapiens (Human), UniProt P41182)", "≥ 100 nM"],
  ["CNC(=O)[C@@H](C)Oc1cc2cc(Nc3nc(N4CCC(CN5CCN(c6ccc7c(c6)C(=O)N([C@H]6CCC(=O)NC6=O)C7=O)CC5)CC4)ncc3Cl)ccc2n(C)c1=O", "BCL6 (Homo sapiens (Human), UniProt P41182)", "≥ 100 nM"]
]}

###

Item-by-item account of DC50
assay_target: BCL6 (Homo sapiens (Human))
protocol_text: Immunofluorescence high content imaging of BCL6 degradation in T47D cells
Type: cell-based
conditions: class symbols A-D, read-out: EC50 (nM)*

{"columns": ["compound", "DC50"],
 "data": [
  ["CNC(=O)COc1cc2cc(Nc3nc(N4CCC(Cc5cn(CCOCCOCCOCCOc6ccc7c(c6)C(=O)N(C6CCC(=O)NC6=O)C7=O)nn5)CC4)ncc3Cl)ccc2n(C)c1=O (centres unmarked)", "> 100 nM"],
  ["CNC(=O)COc1cc2cc(Nc3nc(N4CCC(OCCOCCOCCOc5cc(-c6scnc6C)ccc5CNC(=O)[C@@H]5C[C@@H](O)CN5C(=O)[C@@H](c5cc(C)no5)C(C)C)CC4)ncc3Cl)ccc2n(C)c1=O", "> 100 nM"],
  ["CNC(=O)COc1cc2cc(Nc3nc(N4CCC(OCc5ccc(OCCOCCOCCOc6ccc7c(c6)CN(C6CCC(=O)NC6=O)C7=O)cc5)CC4)ncc3Cl)ccc2n(C)c1=O (centres unmarked)", "50 to 100 nM"],
  ["CC(=O)COc1cc2cc(Nc3nc(N4CCC(C(=O)N5CCN(c6ccc7c(c6)C(=O)N(C6CCC(=O)NC6=O)C7=O)CC5)CC4)ncc3Cl)ccc2n(C)c1=O (centres unmarked)", "< 10 nM"],
  ["CNC(=O)COc1cc2cc(Nc3nc(N4CCC(OCCOCCOCCCOCCCOc5ccc6c(c5)CN(C5CCC(=O)NC5=O)C6=O)CC4)ncc3Cl)ccc2n(C)c1=O (centres unmarked)", "50 to 100 nM"]
]}

###

assay_target: BCL6 (Homo sapiens (Human), UniProt P41182)
protocol_text: Immunofluorescence high content imaging of BCL6 degradation in T47D cells
Type: cell-based
conditions: T47D
measurement_label: Dmax

{"columns": ["compound", "measured_value"],
 "data": [
  ["CNC(=O)COc1cc2cc(Nc3nc(N4CCN(C5CCN(c6cccc7c6C(=O)N(C6CCC(=O)NC6=O)C7=O)CC5)CC4)ncc3Cl)ccc2n(C)c1=O (stereo not drawn) [compound 220]", "50 to 70%"],
  ["CNC(=O)COc1cc2cc(Nc3nc(N4CCN(CC5CCN(c6ccc7c(c6)C(=O)N(C6CCC(=O)NC6=O)C7=O)CC5)CC4)ncc3Cl)ccc2n(C(C)C)c1=O (stereo not drawn) [Exemplary Compound 263]", "50 to 70%"],
  ["CNC(=O)COc1cc2cc(Nc3nc(N4CCN(CC5CCC6(CC5)CN(c5cc(F)cc7c5C(=O)N(C5CCC(=O)NC5=O)C7=O)C6)CC4)ncc3Cl)ccc2n(C(C)C)c1=O (stereo not drawn) [compound 540]", "≥ 70%"]
]}

###

Item-by-item account of IC50
assay_target: BCL6 (Homo sapiens (Human), UniProt P41182)
protocol_text: BCL6 TR-FRET assay (BCL6-Avitag-Biotin / BCoR-Cy5 peptide)
Assay type: binding
conditions: read-out: IC50
measurement_label: IC50

{"columns": ["compound", "assay_target", "measured_value"],
 "data": [
  ["CNC(=O)COc1cc2cc(Nc3nc(N4CCC(OC5CN(C6CCN(c7cccc8c7C(=O)N(C7CCC(=O)NC7=O)C8=O)CC6)C5)CC4)ncc3Cl)ccc2n(C(C)C)c1=O (stereo not shown)", "BCL6 (Homo sapiens (Human), UniProt P41182)", "< 10 nM"],
  ["CNC(=O)COc1cc2cc(Nc3nc(N4CCC(O[C@@H]5C[C@@H](Oc6ccc7c(c6)C(=O)N(C6CCC(=O)NC6=O)C7=O)CN(C)C5)CC4)ncc3Cl)ccc2n(C(C)C)c1=O (stereo partly shown)", "BCL6 (Homo sapiens (Human), UniProt P41182)", "≥ 100 nM"],
  ["CNC(=O)COc1cc2cc(Nc3nc(N4CCC(O[C@H]5C[C@H](N6CCN(c7ccc8c(c7)C(=O)N(C7CCC(=O)NC7=O)C8=O)CC6)C5)CC4)ncc3Cl)ccc2n(C(C)C)c1=O (stereo partly shown)", "BCL6 (Homo sapiens (Human), UniProt P41182)", "< 10 nM"],
  ["CNC(=O)COc1cc2cc(Nc3nc(N4CCC5(CCN(CC6CCN(c7ccc8c(c7)C(=O)N(C7CCC(=O)NC7=O)C8=O)CC6)C5)CC4)ncc3Cl)ccc2n(C(C)C)c1=O (stereo not shown)", "BCL6 (Homo sapiens (Human), UniProt P41182)", "< 10 nM"],
  ["CNC(=O)COc1cc2cc(Nc3nc(N4CCC(O[C@H]5C[C@@H](Oc6ccc7c(c6)C(=O)N(C6CCC(=O)NC6=O)C7=O)CN(C)C5)CC4)ncc3Cl)ccc2n(C(C)C)c1=O (stereo partly shown)", "BCL6 (Homo sapiens (Human), UniProt P41182)", "≥ 100 nM"],
  ["CNC(=O)COc1cc2cc(Nc3nc(N4CCOCC4)ncc3Cl)ccc2n(CCOc2ccc3c(c2)C(=O)N(C2CCC(=O)NC2=O)C3=O)c1=O (stereo not shown)", "BCL6 (Homo sapiens (Human), UniProt P41182)", "≥ 100 nM"],
  ["CNC(=O)COc1cc2cc(Nc3nc(N4CCC(O[C@@H]5C[C@@H](COc6ccc7c(c6)C(=O)N(C6CCC(=O)NC6=O)C7=O)N(C)C5)CC4)ncc3Cl)ccc2n(C(C)C)c1=O (stereo partly shown)", "BCL6 (Homo sapiens (Human), UniProt P41182)", "10 to 50 nM"],
  ["CNC(=O)COc1cc2cc(Nc3nc(N4CCOCC4)ncc3Cl)ccc2n(CCCOc2ccc3c(c2)C(=O)N(C2CCC(=O)NC2=O)C3=O)c1=O (stereo not shown)", "BCL6 (Homo sapiens (Human), UniProt P41182)", "50 to 100 nM"],
  ["CNC(=O)COc1cc2cc(Nc3nc(N4CCC5(CC4)CC(CN4CCN(c6ccc7c(c6)C(=O)N(C6CCC(=O)NC6=O)C7=O)CC4)C5)ncc3Cl)ccc2n(C(C)C)c1=O (stereo not shown)", "BCL6 (Homo sapiens (Human), UniProt P41182)", "< 10 nM"],
  ["CNC(=O)COc1cc2cc(Nc3nc(N4CC5(CCN(CC6CCN(c7cccc8c7C(=O)N(C7CCC(=O)NC7=O)C8=O)CC6)C5)C4)ncc3Cl)ccc2n(C(C)C)c1=O (stereo not shown)", "BCL6 (Homo sapiens (Human), UniProt P41182)", "< 10 nM"]
]}
